Values were extracted from patent US10584114B2.

Target: RET V804L (Homo sapiens (Human), UniProt P07949, V804L)
Sequence (P07949 658-1114 V804L): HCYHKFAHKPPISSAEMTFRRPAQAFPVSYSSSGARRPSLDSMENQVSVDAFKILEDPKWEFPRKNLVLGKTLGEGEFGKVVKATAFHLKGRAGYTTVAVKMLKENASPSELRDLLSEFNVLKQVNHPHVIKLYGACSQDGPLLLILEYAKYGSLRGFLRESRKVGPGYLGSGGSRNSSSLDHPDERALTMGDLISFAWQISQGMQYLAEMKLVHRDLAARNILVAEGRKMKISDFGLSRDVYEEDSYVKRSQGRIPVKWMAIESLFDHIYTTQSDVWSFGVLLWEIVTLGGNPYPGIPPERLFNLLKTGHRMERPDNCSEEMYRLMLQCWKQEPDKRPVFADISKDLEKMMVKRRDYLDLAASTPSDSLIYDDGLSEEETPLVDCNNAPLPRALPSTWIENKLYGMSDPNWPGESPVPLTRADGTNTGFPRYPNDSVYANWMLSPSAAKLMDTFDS
Assay: RET V804L Gatekeeper Mutant Assay at KM (Caliper electrophoretic mobility shift)
Conditions: 10 μM ATP, 25° C., 120 minutes
measure_name: IC50

>>> print(df.to_string())
                               query_smiles  measurement
0  Cc1cc(Nc2cc(C)[nH]n2)nc([C@H]2CC[C@H](C(=O)N[C@@H](C)c3ccc(-n4cccn4)nc3)CC2)n1      < 10 nM
1  Cc1cc(Nc2cc(C)[nH]n2)nc([C@H]2CC[C@H](C(=O)NCc3ccc(-n4cccn4)nc3)CC2)n1      < 10 nM
2  Cc1cc(Nc2cc(C)[nH]n2)nc([C@H]2CC[C@@H](C(=O)NCc3ccc(-n4cccn4)nc3)CC2)n1     > 100 nM

Sure, the documented IC50 for "CCO[C@]1(C(=O)N[C@@H](C)c2ccc(-n3cc(F)cn3)nc2)CC[C@H](c2nc(C)cc(Nc3cc(C)[nH]n3)n2)CC1" is < 10 nM

Sure, the documented IC50 for "CO[C@]1(C(=O)NCc2cnc(-n3cc(F)cn3)cn2)CC[C@H](c2nc(C)cc(Nc3cc(C)[nH]n3)n2)CC1" is < 10 nM

Sure, the documented IC50 for "Cc1cc(Nc2cc(C)[nH]n2)nc([C@@]2(O)CC[C@H](C(=O)NCc3ccc(-n4cccn4)nc3)[C@H](C)C2)c1" is < 10 nM

Sure, the documented IC50 for "Cc1cc(Nc2cc(C)[nH]n2)nc([C@H]2CC[C@H](C(=O)NCc3ccc(-n4nc(C)cc4C)nc3)CC2)n1" is 10 to 100 nM

Sure, the documented IC50 for "Cc1cc(Nc2cc(C)[nH]n2)nc([C@H]2CC[C@H](C(=O)NCc3ccc(-n4cc(Cl)cn4)nc3)CC2)n1" is < 10 nM

* * *

Target: RET V804L (Homo sapiens (Human), UniProt P07949, V804L)
Assay: RET V804L Gatekeeper Mutant Assay at KM (Caliper electrophoretic mobility shift)
Conditions: 10 μM ATP, 25° C., 120 minutes
pIC50: −log10 of the molar value.
measure_name: pIC50

Use these answered entries as a reference point.
>>> print(df.to_string())
                                   molecule  measurement
0  Cc1cc(Nc2cc(C)[nH]n2)nc(C2=CCC(C(=O)N[C@@H](C)c3ccc(-n4cc(F)cn4)nc3)CC2)n1 (stereo partly drawn)       > 8.00
1  Cc1cc(Nc2cc(C)[nH]n2)nc([C@]2(O)CC[C@@H](C(=O)N[C@@H](C)c3ccc(-n4cc(F)cn4)nc3)CC2)c1       > 8.00

Now take the following molecule into account.
Sure, the documented pIC50 for "Cc1cc(Nc2cc(C)[nH]n2)nc([C@]2(O)CC[C@@H](C(=O)NCc3ccc(-n4cccn4)nc3)C(C)(C)C2)c1" is > 8.00

* * *

Target: wild type RET (Homo sapiens (Human), UniProt P07949)
Sequence (P07949 658-1114): as the sequence (P07949 658-1114 V804L) above, with L147V counted along it
pIC50: −log10 of the molar value.
Quick reference for pIC50 among some compounds

                               query_smiles  measure_name  measurement
0  Cc1cc(Nc2cc(C)[nH]n2)nc([C@@H]2CC[C@@H](C(=O)N[C@@H](C)c3ccc(-n4cc(F)cn4)nc3)C(C)(C)C2)n1         pIC50       < 7.00
1  Cc1cc(Nc2cc(C)[nH]n2)nc([C@H]2CC[C@@H](C(=O)N[C@@H](C)c3ccc(-n4cccn4)nc3)CC2)n1         pIC50       < 7.00

Summary line: "Cc1cc(Nc2cc(C)[nH]n2)nc([C@H]2CC[C@H](C(=O)NCc3ccc(-n4cccn4)nc3)CC2)n1" , wild type RET (Homo sapiens (Human), UniProt P07949), reported pIC50 = > 8.00

Summary line: "CO[C@]1(C(=O)N[C@@H](C)c2cnc(-n3cc(F)cn3)cn2)CC[C@H](c2nc(C)cc(Nc3cc(C)[nH]n3)n2)CC1" , wild type RET (Homo sapiens (Human), UniProt P07949), reported pIC50 = > 8.00

Summary line: "CCO[C@]1(C(=O)N[C@@H](C)c2ccc(-n3cc(F)cn3)nc2)CC[C@H](c2nc(C)cc(Nc3cc(C)[nH]n3)n2)CC1" , wild type RET (Homo sapiens (Human), UniProt P07949), reported pIC50 = > 8.00

Summary line: "CO[C@]1(C(=O)NCc2cnc(-n3cc(F)cn3)cn2)CC[C@H](c2nc(C)cc(Nc3cc(C)[nH]n3)n2)CC1" , wild type RET (Homo sapiens (Human), UniProt P07949), reported pIC50 = > 8.00
